Taken from patent US20180258158A1.

Target: T1, mouse serum albumin (MSA), full length (mouse, UniProt P07724 25-608)
T1 construct: mature; Immobilized on CM5 chip (SPR) or coated on plates (ELISA); also called mouse albumin; murine serum albumin
Assay: direct binding ELISA, coated MSA, anti-His-HRP
Set-up: unit not given here
Items are presented alongside their recorded MSA DB ELISA (OD450) Ymin obs.

Completed entries (count: 2):
BINDER	VAL
ADX_6727_F03 (I43Y as printed in Table 4; I43A in Table 7) (designed binder, Full His6-tagged entry) MGVSDVPRDLEVVAATPTSLLISWDAPAVTVRYYRITYGREVQKYSDLGPLYAYQEFTVPGSKSTATISGLKPGVDYTITVYAVTGSGESPASSKPISINYRTEIDKPSQHHHHHH	2
ADX_6727_B01 (K85S) (designed binder, Full His6-tagged entry) MGVSDVPRDLEVVAATPTSLLISWDAPAVTVRYYRITYGREVQKYSDLGPLYIYQEFTVPGSKSTATISGLKPGVDYTITVYAVTGSGESPASSSPISINYRTEIDKPSQHHHHHH	88

Now look at this one.
Give recorded MSA DB ELISA (OD450) Ymin obs. ADX_6727_B09 (L38T/K85T) (designed binder, Full His6-tagged entry) MGVSDVPRDLEVVAATPTSLLISWDAPAVTVRYYRITYGREVQKYSDTGPLYIYQEFTVPGSKSTATISGLKPGVDYTITVYAVTGSGESPASSTPISINYRTEIDKPSQHHHHHH
1
